- testSystem: Cellular tumor antigen p53 (Homo sapiens) (UniProt P04637)
- Sequence (P04637 whole entry, looked up): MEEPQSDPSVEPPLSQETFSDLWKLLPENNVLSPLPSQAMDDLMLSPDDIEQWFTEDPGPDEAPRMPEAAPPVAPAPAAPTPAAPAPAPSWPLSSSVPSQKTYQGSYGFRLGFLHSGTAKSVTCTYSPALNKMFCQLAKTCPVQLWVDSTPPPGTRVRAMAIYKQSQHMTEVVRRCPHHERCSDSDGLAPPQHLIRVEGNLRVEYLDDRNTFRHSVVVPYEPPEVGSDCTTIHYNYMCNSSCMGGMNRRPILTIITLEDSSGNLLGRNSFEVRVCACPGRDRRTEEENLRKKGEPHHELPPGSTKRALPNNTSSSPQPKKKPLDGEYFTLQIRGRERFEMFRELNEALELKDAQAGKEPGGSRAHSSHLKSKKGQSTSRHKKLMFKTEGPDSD
- protocolNotes: Primary qHTS for small molecule compounds that upregulate eGFP-tagged delta133p53alpha (in N-terminal) cells. (AID 2060322);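 note: cells pre-induced with doxycycline then dosed without doxycycline; 0% = DMSO vehicle and 100% = reference activator; nearly all actives have a fitted effect of over 75% in size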
- experimentalConditions: NCI-H358 eGFP-delta133p53alpha fluorescence, 24 h; hits give high values
Results filed as inconclusive are left out.
I'd be grateful if you could share measured activation for these entries.
One number for each entry, in %.

// worked examples, activation included
{"compound": "O=S(=O)(O)c1ccc(Nc2ncnc3c2ncn3[C@@H]2O[C@H](CO)[C@@H](O)[C@H]2O)cc1", "reported": -3}
{"compound": "c1ccc(OCc2ccc(CCCN3CCOCC3)cc2)cc1", "reported": -7.53}
{"compound": "CC(=O)c1c(C)cc(O)cc1O[C@@H]1O[C@H](CO)[C@@H](O)[C@H](O)[C@H]1O", "reported": -17.6}
{"compound": "CC[C@H](NC(=O)c1c(O)c(-c2ccccc2)nc2ccccc12)c1ccccc1", "reported": 2.86}
{"compound": "c1cc(-c2sc(-c3ccncc3)c(-c3ccncc3)c2-c2ccncc2)ccn1", "reported": 6.76}
{"compound": "O=C(c1ccccn1)c1cnn2c(-c3ccncc3)ccnc12", "reported": -7.16}
{"compound": "NC(=O)CC[C@@H](N)C(=O)O", "reported": 1.69}
{"compound": "O=C(O)C1CN(CCCP(=O)(O)O)CCN1 (centres undefined)", "reported": -32.5}

I'm hoping you can list activation for every compound here, please.
1. O=C(NCc1ccccc1)[C@H](Cc1ccccc1)NC(=O)[C@@H]1O[C@@H]1C(=O)NCCc1ccc(O)cc1
2. CN(C)C1CCN(C(=O)c2ccc(NC(=O)Nc3nc(N4CCOCC4)nc(N4CCOCC4)n3)cc2)CC1
3. COc1cc(Br)c(Nc2nc(-c3c(C)nc4ncccn34)cs2)c(Br)c1
4. C/C1=C\C[C@]2(C)C(=O)C(O)=C([C@H](C)CO)[C@H]2C/C=C(\C)[C@@H](O)CC/C(C)=C/CC1

16.6
-12.1
14.8
-6.11

====

- testSystem: Aldehyde dehydrogenase, mitochondrial (Homo sapiens) (UniProt P05091)
- protocolNotes: qHTS for Inhibitors of the Aldehyde Dehydrogenase Family (ALDH2) Primary screen (AID 2061308);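 note: plate controls were vehicle for no effect and reference inhibitor for full effect; nearly all actives have a fitted effect of over 55% in size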
- experimentalConditions: ALDH2 enzyme inhibition qHTS, 1536-well; series mostly up to 56 µM
Inconclusive results are not listed. The source made the active and inactive calls. Calls come from the whole dose curve; as a rule, active = well fitted inhibition curve with a large enough effect; inconclusive = small, poorly fitted or top-dose-only effect; inactive = flat fitted curve, though single readings scatter.
quantityMeasured: activity change, negative = inhibition

{"compound": "COc1ccc(C2Nc3ccccc3C(=O)N2Cc2ccc(C(F)(F)F)cc2)cc1COc1ccc(NC(C)=O)cc1 (stereo not drawn)", "quantityMeasured": "activity change, negative = inhibition", "reported": "inactive"}
{"compound": "CSC(=O)OCC1=C[C@@H]2OC(=O)C3=CO[C@@H](O[C@@H]4O[C@H](CO)[C@@H](O)[C@H](O)[C@H]4O)[C@H]1[C@@H]32", "quantityMeasured": "activity change, negative = inhibition", "reported": "inactive"}
{"compound": "C=C1CC[C@]2(C(=O)O[C@@H]3O[C@H](CO)[C@@H](O)[C@H](O)[C@H]3O)CC[C@]3(C)C(=CCC4[C@@]5(C)C[C@H](O)[C@@H](O[C@@H]6O[C@H](C(=O)O)[C@@H](O)[C@H](O)[C@H]6O)[C@](C)(C=O)C5CC[C@]43C)C2C1 (stereo partly drawn)", "quantityMeasured": "activity change, negative = inhibition", "reported": "inactive"}
